FYI, the data here is from patent US20240325555A1.

Target: T1, human LIV-1 (human, UniProt Q13433 29-755)
T1 construct: whole, on cells; also called H-LIV1
T1 sequence (looked up): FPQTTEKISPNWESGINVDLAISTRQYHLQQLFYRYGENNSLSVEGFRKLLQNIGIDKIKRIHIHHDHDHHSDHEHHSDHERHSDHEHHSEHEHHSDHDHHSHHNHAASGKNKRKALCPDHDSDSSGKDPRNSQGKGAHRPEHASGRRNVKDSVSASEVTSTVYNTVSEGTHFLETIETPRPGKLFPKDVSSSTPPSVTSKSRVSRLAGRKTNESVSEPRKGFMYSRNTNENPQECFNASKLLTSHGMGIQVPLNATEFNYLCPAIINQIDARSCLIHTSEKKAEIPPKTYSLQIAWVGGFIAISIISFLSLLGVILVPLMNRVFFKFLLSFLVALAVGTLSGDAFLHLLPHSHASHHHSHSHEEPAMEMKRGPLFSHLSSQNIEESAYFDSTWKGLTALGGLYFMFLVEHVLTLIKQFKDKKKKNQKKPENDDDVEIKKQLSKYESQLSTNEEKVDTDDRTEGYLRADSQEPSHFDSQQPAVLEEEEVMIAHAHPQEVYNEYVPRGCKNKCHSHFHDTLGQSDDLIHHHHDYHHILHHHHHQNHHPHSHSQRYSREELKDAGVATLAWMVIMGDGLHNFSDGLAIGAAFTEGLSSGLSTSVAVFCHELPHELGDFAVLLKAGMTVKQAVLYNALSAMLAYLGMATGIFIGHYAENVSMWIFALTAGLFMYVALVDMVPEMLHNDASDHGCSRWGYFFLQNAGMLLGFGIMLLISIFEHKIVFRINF
Assay: FACS, HEK293/H_LIV-1 cells
List of Top (MFI) values.
Value Kind: Top (MFI)

{"Binder": "5D6B10 (antibody, V domains shown, Tested as chimeric antibody) VH: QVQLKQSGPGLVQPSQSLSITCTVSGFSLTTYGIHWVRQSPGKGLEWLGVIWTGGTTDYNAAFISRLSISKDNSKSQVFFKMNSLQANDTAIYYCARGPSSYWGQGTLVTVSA VL: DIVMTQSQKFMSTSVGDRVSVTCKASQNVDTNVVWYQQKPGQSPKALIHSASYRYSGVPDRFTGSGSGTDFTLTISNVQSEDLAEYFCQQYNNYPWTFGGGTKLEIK", "Value Kind": "Top (MFI)", "Assay Value": 61900}
{"Binder": "124H4D11.p2.z4 (antibody, V domains shown) VH: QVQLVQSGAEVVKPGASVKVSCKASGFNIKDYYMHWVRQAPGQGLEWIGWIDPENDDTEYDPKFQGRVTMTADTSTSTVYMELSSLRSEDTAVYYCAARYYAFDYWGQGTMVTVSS VL: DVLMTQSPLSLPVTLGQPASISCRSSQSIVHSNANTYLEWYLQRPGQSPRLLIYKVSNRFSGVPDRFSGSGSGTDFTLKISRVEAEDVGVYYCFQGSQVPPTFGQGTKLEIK", "Value Kind": "Top (MFI)", "Assay Value": 16900}
{"Binder": "124H4D11.p2.z2 (antibody, V domains shown) VH: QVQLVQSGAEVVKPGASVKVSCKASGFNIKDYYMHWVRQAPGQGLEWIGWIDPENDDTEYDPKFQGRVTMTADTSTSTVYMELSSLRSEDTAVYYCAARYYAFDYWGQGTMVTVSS VL: DVLMTQSPSSLSASVGDRVTITCRSSQSIVHSNANTYLEWYLQKPGKSPKLLIYKVSNRFSGVPDRFSGSGSGTEFTLTISSVQPEDFAVYYCFQGSQVPPTFGQGTRLEIK", "Value Kind": "Top (MFI)", "Assay Value": 19400}
